Below, each entry is listed with its recorded Inhibition rate (%) at 0.35 mg/ml time.
target: DPP-4 (manufactured by Sigma, derived from porcine kidney) (porcine, UniProt P22411 38-766, limits assumed); assay: cell-based or functional assay
Sequence (P22411 38-766 limits assumed): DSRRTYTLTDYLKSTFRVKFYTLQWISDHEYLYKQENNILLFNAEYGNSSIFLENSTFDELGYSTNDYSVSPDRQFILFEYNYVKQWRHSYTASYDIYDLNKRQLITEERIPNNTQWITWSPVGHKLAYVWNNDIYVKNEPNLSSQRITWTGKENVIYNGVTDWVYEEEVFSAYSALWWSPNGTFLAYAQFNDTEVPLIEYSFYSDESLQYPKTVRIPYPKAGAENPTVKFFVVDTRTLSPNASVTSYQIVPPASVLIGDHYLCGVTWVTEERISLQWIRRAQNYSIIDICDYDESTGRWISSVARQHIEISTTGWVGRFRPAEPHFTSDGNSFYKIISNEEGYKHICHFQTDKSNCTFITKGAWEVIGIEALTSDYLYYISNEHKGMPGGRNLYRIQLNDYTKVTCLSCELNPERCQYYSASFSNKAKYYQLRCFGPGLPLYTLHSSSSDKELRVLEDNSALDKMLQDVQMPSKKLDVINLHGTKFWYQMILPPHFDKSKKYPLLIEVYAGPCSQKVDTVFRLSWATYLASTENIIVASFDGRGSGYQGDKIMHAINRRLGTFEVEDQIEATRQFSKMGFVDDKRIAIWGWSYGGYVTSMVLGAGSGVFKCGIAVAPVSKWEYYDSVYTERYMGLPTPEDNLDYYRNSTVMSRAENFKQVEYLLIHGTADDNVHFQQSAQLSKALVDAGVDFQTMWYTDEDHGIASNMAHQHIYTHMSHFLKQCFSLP
Square brackets hold non-standard residues; d marks the D form. Ends that are not written are not given here. Hyp = O=C(O)[C@@H]1C[C@@H](O)CN1

Binder	Inhibition rate (%) at 0.35 mg/ml time
Leu-[Hyp]-Gly [Leu-Hyp-Gly]	89.3%
Ala-[Hyp]-Gly [Ala-Hyp-Gly]	14.6%
APG [Ala-Pro-Gly]	98.7%
Ala-[Hyp] [Ala-Hyp]	0%
